Listed here are compounds together with their documented IC50.
# measured_on: Rho-associated protein kinase (Homo sapiens, UniProt O75116+Q13464)

Nc1ccccc1CN1CCC(Nc2cccc3cnccc23)C1 (configuration not stated) ... 205 nM
c1ccc(CCN[C@H]2CC[C@@H](Nc3cccc4cnccc34)CC2)cc1 ... 580 nM
c1ccc(CCN[C@H]2CC[C@H](Nc3cccc4cnccc34)CC2)cc1 ... 440 nM
CC(C)CCN1CCCC(Nc2cccc3cnccc23)C1 (configuration not stated) ... 270 nM
Clc1ccccc1CN1CCC(Nc2cccc3cnccc23)C1 (configuration not stated) ... 100 nM

Note to self: IC50 of Clc1cccc(CN2CCC(Nc3cccc4cnccc34)C2)c1 (configuration not stated) with Rho-associated protein kinase (Homo sapiens, UniProt O75116+Q13464) was 65 nM

Note to self: IC50 of c1cc(N[C@H]2CC[C@H](NC3CC3)CC2)c2ccncc2c1 with Rho-associated protein kinase (Homo sapiens, UniProt O75116+Q13464) was 70 nM

Note to self: IC50 of Clc1ccccc1CN1CCCC(Nc2cccc3cnccc23)C1 (configuration not stated) with Rho-associated protein kinase (Homo sapiens, UniProt O75116+Q13464) was 210 nM

Note to self: IC50 of Nc1cccc(CN2CC[C@@H](Nc3cccc4cnccc34)C2)c1 with Rho-associated protein kinase (Homo sapiens, UniProt O75116+Q13464) was 25 nM

Note to self: IC50 of Nc1cccc(CN2CC[C@H](Nc3cccc4cnccc34)C2)c1 with Rho-associated protein kinase (Homo sapiens, UniProt O75116+Q13464) was 310 nM

Note to self: IC50 of c1ccc(CN2CCC(Nc3cccc4cnccc34)CC2)cc1 with Rho-associated protein kinase (Homo sapiens, UniProt O75116+Q13464) was 140 nM

Note to self: IC50 of Clc1ccc(CN2CCC(Nc3cccc4cnccc34)C2)cc1 (configuration not stated) with Rho-associated protein kinase (Homo sapiens, UniProt O75116+Q13464) was 65 nM

Just for reference, ChEMBL document CHEMBL1144546 is where these values come from.
